- System: A-431
- procedure.details: Antiproliferative activity against human A431 cells incubated for 72 hrs by MTT assay
- Assay type: functional, cell-based
- measurement.setup: A-431, 72 h
pIC50: −log10 of the molar value.
Measured pIC50 of individual entries

smiles.structure	pIC50
C=CC(=O)Nc1ccccc1Nc1nc(Nc2ccc(OCC(=O)N3CCOCC3)cc2)ncc1Cl	7.38
C=CC(=O)Nc1ccccc1Nc1nc(Nc2ccc(OCCCN3CCOCC3)cc2)ncc1Cl	6.23
C=CC(=O)Nc1cccc(Nc2nc(Nc3ccc(OCCN4CCOCC4)c(Cl)c3)ncc2Cl)c1	6.06
C=CC(=O)Nc1cccc(Nc2nc(Nc3ccc(CN4CCOCC4)cc3OC)ncc2Cl)c1	5.69
C=CC(=O)Nc1ccccc1Nc1nc(Nc2ccc(NC(=O)CN3CCOCC3)cc2)ncc1Cl	6.98
C=CC(=O)Nc1cccc(Nc2nc(Nc3ccc(CC(=O)N4CCOCC4)cc3)ncc2Cl)c1	6.12
C=CC(=O)Nc1ccccc1Nc1nc(Nc2ccc(CN3CCOCC3)cc2)ncc1Cl	6.95
C=CC(=O)Nc1cccc(Nc2nc(Nc3ccc(CN4CCOCC4)cc3)ncc2F)c1	6.35
C=CC(=O)Nc1ccccc1Nc1nc(Nc2ccc(OCCN3CCOCC3)cc2)ncc1Cl	6.32
